biological target: Sodium-dependent dopamine transporter (Rattus norvegicus, UniProt P23977); assay: Displacement of [3H]mazindol binding to dopamine transporter (DAT) in rat synaptosomes; assay type: subcellular, Brain
Sequence (P23977 whole entry): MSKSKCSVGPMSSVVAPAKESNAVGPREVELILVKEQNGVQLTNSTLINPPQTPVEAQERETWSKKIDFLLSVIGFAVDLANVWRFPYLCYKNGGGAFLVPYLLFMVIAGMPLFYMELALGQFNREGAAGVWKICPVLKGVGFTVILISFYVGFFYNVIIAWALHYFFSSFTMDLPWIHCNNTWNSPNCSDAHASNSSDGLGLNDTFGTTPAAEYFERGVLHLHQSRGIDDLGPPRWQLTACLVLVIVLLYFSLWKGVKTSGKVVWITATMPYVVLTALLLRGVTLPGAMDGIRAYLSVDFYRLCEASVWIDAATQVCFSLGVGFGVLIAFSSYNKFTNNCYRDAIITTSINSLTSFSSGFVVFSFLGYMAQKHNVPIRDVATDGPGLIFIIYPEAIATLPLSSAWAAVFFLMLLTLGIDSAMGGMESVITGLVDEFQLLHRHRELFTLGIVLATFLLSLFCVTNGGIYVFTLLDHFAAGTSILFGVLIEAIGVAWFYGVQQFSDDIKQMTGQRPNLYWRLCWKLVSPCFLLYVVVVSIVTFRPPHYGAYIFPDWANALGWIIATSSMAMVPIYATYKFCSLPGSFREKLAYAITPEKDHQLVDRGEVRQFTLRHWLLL
Answer each item with its documented pKi.
Answer as the number alone; pKi is minus log10 of concentration in mol/L.

Name the recorded pKi for "CN1CC[C@H](c2ccc(Cl)cc2)[C@@H](C(=O)NCCCCNC(=O)[C@H]2CN(C)CC[C@@H]2c2ccc(Cl)cc2)C1" .
7.09

Item: "CN1CC[C@H](c2ccc(Cl)cc2)[C@@H](C(=O)OCCCCCCCCOC(=O)[C@H]2CN(C)CC[C@@H]2c2ccc(Cl)cc2)C1"
6.04

Item: "COC(=O)[C@@H]1CN(C)CC[C@H]1c1ccc(Cl)cc1"
5.75

Item: "CN1CC[C@H](c2ccc(Cl)cc2)[C@@H](C(=O)NCCCNC(=O)[C@H]2CN(C)CC[C@@H]2c2ccc(Cl)cc2)C1"
8.08

Item: "CN1CC[C@H](c2ccc(Cl)cc2)[C@@H](C(=O)NCCCCCCCNC(=O)[C@H]2CN(C)CC[C@@H]2c2ccc(Cl)cc2)C1"
6.46

Item: "CN1CC[C@H](c2ccc(Cl)cc2)[C@@H](C(=O)NCCCCCNC(=O)/C=C/c2ccc(Cl)cc2)C1"
6.61

Item: "CN1CC[C@H](c2ccc(Cl)cc2)[C@@H](C(=O)NCCCCCCNC(=O)[C@H]2CN(C)CC[C@@H]2c2ccc(Cl)cc2)C1"
6.40

Item: "CN1CC[C@H](c2ccc(Cl)cc2)[C@@H](C(=O)NCCCCCNC(=O)c2ccc(Cl)cc2)C1"
6.71

Item: "CN1CC[C@H](c2ccc(Cl)cc2)[C@@H](C(=O)NCCCCCNC(=O)[C@H]2CN(C)CC[C@@H]2c2ccc(Cl)cc2)C1"
6.99

Item: "CN1CC[C@H](c2ccc(Cl)cc2)[C@@H](C(=O)OCCCCCOC(=O)[C@H]2CN(C)CC[C@@H]2c2ccc(Cl)cc2)C1"
7.19

Item: "CN1CC[C@H](c2ccc(Cl)cc2)[C@@H](C(=O)NCCCCCCCCNC(=O)[C@H]2CN(C)CC[C@@H]2c2ccc(Cl)cc2)C1"
6.53

----------
biological target: Norepinephrine transporter (Rattus norvegicus, UniProt Q9WTR4); test: Ability to inhibit high affinity uptake of norepinephrine transporter into the nerve endings of rat synaptosomes using [3H]NE as a radioligand; assay type: subcellular, Brain
Sequence (Q9WTR4 whole entry): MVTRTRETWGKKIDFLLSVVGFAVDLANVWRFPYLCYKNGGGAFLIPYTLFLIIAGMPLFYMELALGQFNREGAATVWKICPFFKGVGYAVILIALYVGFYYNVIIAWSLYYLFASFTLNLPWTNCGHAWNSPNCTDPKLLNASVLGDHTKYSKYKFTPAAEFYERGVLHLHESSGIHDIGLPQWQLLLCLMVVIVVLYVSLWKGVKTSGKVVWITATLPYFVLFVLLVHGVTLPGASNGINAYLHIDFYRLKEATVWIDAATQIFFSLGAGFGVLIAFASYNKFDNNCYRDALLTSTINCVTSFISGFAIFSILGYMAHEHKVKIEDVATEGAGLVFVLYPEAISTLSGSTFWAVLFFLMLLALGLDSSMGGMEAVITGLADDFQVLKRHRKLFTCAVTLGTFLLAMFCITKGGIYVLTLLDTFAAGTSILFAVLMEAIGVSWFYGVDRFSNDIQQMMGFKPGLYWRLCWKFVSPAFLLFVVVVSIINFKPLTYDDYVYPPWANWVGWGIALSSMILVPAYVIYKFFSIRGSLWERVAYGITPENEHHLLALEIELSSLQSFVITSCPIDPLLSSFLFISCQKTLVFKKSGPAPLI
Readout: pKi
Answer as the number alone; pKi is minus log10 of concentration in mol/L.

Name the recorded pKi for "CN1CC[C@H](c2ccc(Cl)cc2)[C@@H](C(=O)NCCCCCNC(=O)/C=C/c2ccc(Cl)cc2)C1" .
5.97

Item: "CN1CC[C@H](c2ccc(Cl)cc2)[C@@H](C(=O)OCCCCCCCCOC(=O)[C@H]2CN(C)CC[C@@H]2c2ccc(Cl)cc2)C1"
6.18

Item: "CN1CC[C@@H](c2ccc(Cl)cc2)[C@H](C(=O)NCCCCCCCCNC(=O)[C@@H]2CN(C)CC[C@H]2c2ccc(Cl)cc2)C1"
5.98

Item: "CN1CC[C@H](c2ccc(Cl)cc2)[C@@H](C(=O)OCCCOC(=O)[C@H]2CN(C)CC[C@@H]2c2ccc(Cl)cc2)C1"
6.47

Item: "CN1CC[C@H](c2ccc(Cl)cc2)[C@@H](C(=O)NCCCCCCCNC(=O)[C@H]2CN(C)CC[C@@H]2c2ccc(Cl)cc2)C1"
6.40

Item: "CN1CC[C@@H](c2ccc(Cl)cc2)[C@H](C(=O)NCCCCCNC(=O)[C@@H]2CN(C)CC[C@H]2c2ccc(Cl)cc2)C1"
6.41

Item: "CNC(=O)[C@H]1CN(C)CC[C@@H]1c1ccc(Cl)cc1"
5.36

Item: "CN1CC[C@H](c2ccc(Cl)cc2)[C@@H](C(=O)NCCCCCNC(=O)c2ccccc2)C1"
5.92
